Where these numbers come from: ChEMBL document CHEMBL2439991

METHOD_DESCRIPTION: Cytotoxicity against human U87 cells after 72 hrs by MTT assay
Type: functional, U-87MG ATCC
CONDITION_LABEL: U-87 MG
READOUT_NAME: GI50

Inquiry: Using the record for `COc1ccc(CNC(=O)c2ccc(OC)c(OC)c2)cc1OC` , state its measured GI50.
Reply text: > 100 µM

Inquiry: Give the reported value of GI50 for this record: `COc1ccc(C(=O)N2CCc3cc(OC)c(OC)cc3C2)cc1OC`
Reply text: 20.6 µM

Inquiry: Write down GI50 measured for item `COc1ccc(/C=C/C(=O)NCc2ccc(OC)c(OC)c2)cc1OC`
Reply text: 57.1 µM

Inquiry: Please report GI50 for the following compound: `COc1ccc(CNC(=O)NCc2ccc(OC)c(OC)c2)cc1OC`
Reply text: > 100 µM

Inquiry: Please indicate GI50 recorded for `COc1ccc(CCNS(=O)(=O)c2ccc(OC)c(OC)c2)cc1OC`
Reply text: > 100 µM

Inquiry: Please list GI50 recorded for the compound `COc1ccc(CC(=O)Nc2ccc(OC)c(OC)c2)cc1OC`
Reply text: > 100 µM

Inquiry: Kindly indicate its recorded GI50. Item: `COc1ccc(CN2CCc3cc(OC)c(OC)cc3C2)cc1OC`
Reply text: > 100 µM

Inquiry: Tell us which GI50 value is on record for `COc1ccc(C2=NCCc3cc(OC)c(OC)cc32)cc1OC`
Reply text: > 100 µM

Inquiry: Give recorded GI50. `COc1ccc(NC(=O)c2ccc(OC)c(OC)c2)cc1OC`
Reply text: > 100 µM

Inquiry: Retrieve GI50 measured for `COc1ccc(C[C@@H](C)[C@@H](C)Cc2ccc(OC)c(OC)c2)cc1OC` and print it.
Reply text: > 50 µM

Inquiry: Look up and state reported GI50 for `COc1ccc(CCNC(=O)c2ccc(OC)c(OC)c2)cc1OC`
Reply text: > 100 µM

Inquiry: Using the record for `COc1ccc(NC(=O)Nc2ccc(OC)c(OC)c2)cc1OC` , state its measured GI50.
Reply text: > 50 µM

Inquiry: Identify the reported GI50 for the following entry. `COc1ccc(CNS(=O)(=O)c2ccc(OC)c(OC)c2)cc1OC`
Reply text: > 100 µM

Inquiry: # return recorded GI50 for entry COc1ccc(/C=C2/CCc3cc(OC)c(OC)cc32)cc1OC (mixture of isomers)
Reply text: > 25 µM
